Values compiled from ChEMBL document CHEMBL5055628.

system: HT-1080; assay: Cytotoxicity against human HT-1080 cells assessed as inhibition of cell growth measured after 72 hrs by CellTiter-Glo reagent based luminescence assay; type: functional; conditions: HT-1080, 72 h
measurement-type: IC50 (nM)
Give the value, in units of nM, as a plain number.

C=C(c1ccc(OC)c(O)c1)c1cc(OC)c(OC)c(OC)c1 : 0.91

Could you now look at the following molecule, please?
Short answer for CCn1c(CO)cc2cc(N(C)c3nc(C)nc4ccccc34)ccc21 : IC50 was 0.08

----------
system: U-87 MG; experiment: Cytotoxicity against human U-87 MG cells assessed as inhibition of cell growth measured after 72 hrs by CellTiter-Glo reagent based luminescence assay; assay type: functional, U-87MG ATCC
measurement-type: pIC50
Please report pIC50 as the negative decimal logarithm of the molar concentration, giving only the number.

pIC50 measured on CCn1c(CO)cc2cc(N(C)c3nc(C)nc4ccccc34)ccc21 = 9.29
